FYI, the data here is from patent US20260139066A1.

Here, each record is paired with measured koff data.
study target: T1, canine urokinase plasminogen activator receptor, recombinant protein (canine)
T1 construct: Recombinant c uPAR produced by VIB (Ghent); also called c uPAR; canine uPAR
T1 chain: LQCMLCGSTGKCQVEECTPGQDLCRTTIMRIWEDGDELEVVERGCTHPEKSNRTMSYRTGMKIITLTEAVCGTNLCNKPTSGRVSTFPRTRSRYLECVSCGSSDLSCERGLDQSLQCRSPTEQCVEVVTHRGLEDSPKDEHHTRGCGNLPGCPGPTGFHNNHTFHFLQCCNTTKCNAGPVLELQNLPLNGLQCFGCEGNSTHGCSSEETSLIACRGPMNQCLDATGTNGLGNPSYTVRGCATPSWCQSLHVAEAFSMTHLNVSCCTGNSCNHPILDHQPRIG
method: SPR (Biacore T200) off-rate screening of bacterial extract, c uPAR immobilised on CM5; column koff
Numbers only here, please. The scale is s⁻¹.

Reference set (3 entries):
sdAb 15 (clone 5A4) with carboxy-terminal hexahistidine tag (VHH, Lead compound; C-terminal 6His for purified-protein SPR; koff screen used bacterial extracts of the pMECS-GG construct; also called sdAb15.6His; Nr 15) VHH: QVQLQESGGGWVQPGGSLRLSCAASGFTLDYYGIGWFRQAPGKEREGVSCISSSDGSTYYADSVKGRFTISRDNAKNTVYLQMNSLKPEDTAVYYCATRGASCYYTGSYSLGYDYWGQGTQVTVSS = 0.0065
sdAb 17 (clone 5B7) with carboxy-terminal hexahistidine tag (VHH, C-terminal 6His for purified-protein SPR; koff screen used bacterial extracts; also called Nr 17) VHH: QVQLQESGGGLVQPGGSLRLSCAVSGSTLEYYGIGWFRQAPGKEREGVSCISSSDGSTYYADSVKGRFTISRDNAKNTVYLQMNSLKPEDTAVYYCATRGASCYYTGSYSLGYDYWGQGTQVTVSS = 0.0073
sdAb 16 (clone 5A5) with carboxy-terminal hexahistidine tag (VHH, C-terminal 6His for purified-protein SPR; koff screen used bacterial extracts; also called Nr 16) VHH: QVQLQESGGGLVQPGGSLRLSCAISGFTLDYYGIGWFRQAPGKEREGVSCISSSDGSTYYADSVKGRFTISRDNAKNTVYLQMNSLKPEDTAVYYCATRGASCYYSGSYSLGYDYWGQGTQVTVSS = 0.01

[ask] Could you share which koff value was measured for sdAb 18 (clone 5H2) with carboxy-terminal hexahistidine tag (VHH, C-terminal 6His for purified-protein SPR; koff screen used bacterial extracts; also called Nr 18) VHH: QVQLQESGGGLAQPGGSLRLSCTASGFTSDYYGIGWFRQAPGKEREGVSCISSSDGSTYYADSVKGRFTISRDNAKNTVYLQMNSLKPEDTAVYYCATRGASCYYTGSYSLGYDYWGQGTQVTVSS ?
[reply] 0.0092
